- System: MDA-MB-231 breast
- test: NCI-60 one-dose screen, 48 h
- run-parameters: 10 µM
About 83,000 compounds went through this panel and 20% of them were active in at least one assay; those are over-represented in the sample as a whole. The source made the active and inactive calls. How the source made its calls: active means growth percent below 10; inactive means the rest.
# output must be one of yes for active, no for inactive

As a guide, the following entries are already answered.
INSERT INTO assay_data (molecule, test_target, class_name) VALUES
  ('O=C(/C=C/Nc1ccc(F)cc1F)c1ccc2c(c1)Nc1ccccc1S2', 'MDA-MB-231 breast', 'no'),
  ('Cc1cccc(NC(=O)CSc2nc3ccc(F)cc3c(=O)n2-c2ccc(Cl)cc2)c1C', 'MDA-MB-231 breast', 'no'),
  ('COc1ccc2[nH]c(O)c(N=NC(=O)COc3ccc(NC(=O)Nc4ccc(Cl)cc4)cc3)c2c1', 'MDA-MB-231 breast', 'yes'),
  ('CCOC(=O)C1=C(N)N(c2ccc(C)cc2)C2=C(C(=O)CC(C)(C)C2)C1c1ccccc1OC (stereo not given)', 'MDA-MB-231 breast', 'no'),
  ('O=C(N/C(=C1/OCCN1Cc1ccccc1)[P+](c1ccccc1)(c1ccccc1)c1ccccc1)c1ccccc1', 'MDA-MB-231 breast', 'yes'),
  ('COc1cc(C2CC(c3ccc(C)cc3)=Nc3c(N)nc(N)nc3N2)ccc1Oc1nc(Nc2ccc(F)cc2)nc(N(C)C)n1 (stereo not given)', 'MDA-MB-231 breast', 'no');

Please turn your attention to the following entry.
Tell me the recorded outcome of this test for CC1=C(C(=O)OC(C)C)C(c2ccc(O)cc2)NC(=S)N1 (stereo not given) . no
